Molecular target: T1, RSV strain A2 pre-fusion F protein (SC-TM) (human respiratory syncytial virus …, UniProt P03420 26-513)
T1 construct: not shown: fold-on trimerization domain and polyhistidine tag
Assay: ELISA, F protein coated
experimental endpoint: EC50 (µg/mL)

- hRSV90 (antibody, V domains shown, also called mAb hRSV90) VH: EVQLVESGGGLVQPRRSLRLSCAASGFTFDDYTIHWVRQAPGKGLEWVSGITWNSGYIGYADSVKGRFTISRDNARNSLYLQMNSLRAEDTALYYCVRDAYVSGSDYYYYGLDVWGRGTLVTVSS VL: EIVMTSSPATLSVSPGERATLFCRASQSVISNLAWYQQKSGQAPRLLIYGASTRATGIPARFSGSGSGTEFTLTISSLQSEDFAVYFCQQYNNWPLTFGGGTQVNVQ: 0.028
- hRSV139 (antibody, V domains shown) VH: QVQLVQSGAEVKKPGASVKVSCKASGYVFSNYGISWVRQAPGQGLEWMGWISAYNGNTEFAQKFQGRITMTTDTSTNTAYLEVRGLRSDDTAVYYCSRQSGVSGVPEFQDWGQGTLVTVSS VL: QAVVTQSPLSLPVTLGQPASISCRSSQSLVYSNGDTYLSWFQQRPGQSPRRLIYKVSNRDSGVPDRFSASGSGTDFTLKISRVEAEDVGVYYCMQGTHWPPPTFGQGTRLEIK: 0.04
- hRSV141 (antibody, V domains shown) VH: QVQLVQSGAEVKKPGASVKVSCKASGYTFTNYYMHWVRQAPGQGLEWMGWINPNRGGTNYAQKFQGRVTMTLDTSISTAYIELSRLRSDDTAVYYCARDLTLGTDYWGQGTLVTVSS VL: QAVVTQPASVFGFPGQSITISCTGTSSDVGGYNYVSWYQQRPGKAPKLMIYEVSNRPSGVSNRFSGSKSGNTASLTISGLQAEDEADYYCNSYTSSNSYVFGTGTKVTVL: 0.029
